# binding signal per record follows
molecular target: AGO2 T357M (Homo sapiens, UniProt Q9UKV8 1-859, T357M;S387D;S824A;S828D;S831D;S834A); assay: RNA Bind-n-Seq (nitrocellulose filter binding and sequencing); miR-122 guide loaded in AGO2; 60 min incubation; 30 mM Tris pH 8.0, 100 mM potassium acetate, 2 mM magnesium acetate, 0.5 mM TCEP, 0.005% NP-40, 0.01 mg/ml yeast tRNA; 3 nM AGO2-miR-122, 100 nM RNA library; 60; high values mean tight binding; settings: protein: recombinant; tags: His6 (N-terminal, pFastBac HTA)
Sequence (Q9UKV8 whole entry T357M/S387D/S824A/S828D/S831D/S834A): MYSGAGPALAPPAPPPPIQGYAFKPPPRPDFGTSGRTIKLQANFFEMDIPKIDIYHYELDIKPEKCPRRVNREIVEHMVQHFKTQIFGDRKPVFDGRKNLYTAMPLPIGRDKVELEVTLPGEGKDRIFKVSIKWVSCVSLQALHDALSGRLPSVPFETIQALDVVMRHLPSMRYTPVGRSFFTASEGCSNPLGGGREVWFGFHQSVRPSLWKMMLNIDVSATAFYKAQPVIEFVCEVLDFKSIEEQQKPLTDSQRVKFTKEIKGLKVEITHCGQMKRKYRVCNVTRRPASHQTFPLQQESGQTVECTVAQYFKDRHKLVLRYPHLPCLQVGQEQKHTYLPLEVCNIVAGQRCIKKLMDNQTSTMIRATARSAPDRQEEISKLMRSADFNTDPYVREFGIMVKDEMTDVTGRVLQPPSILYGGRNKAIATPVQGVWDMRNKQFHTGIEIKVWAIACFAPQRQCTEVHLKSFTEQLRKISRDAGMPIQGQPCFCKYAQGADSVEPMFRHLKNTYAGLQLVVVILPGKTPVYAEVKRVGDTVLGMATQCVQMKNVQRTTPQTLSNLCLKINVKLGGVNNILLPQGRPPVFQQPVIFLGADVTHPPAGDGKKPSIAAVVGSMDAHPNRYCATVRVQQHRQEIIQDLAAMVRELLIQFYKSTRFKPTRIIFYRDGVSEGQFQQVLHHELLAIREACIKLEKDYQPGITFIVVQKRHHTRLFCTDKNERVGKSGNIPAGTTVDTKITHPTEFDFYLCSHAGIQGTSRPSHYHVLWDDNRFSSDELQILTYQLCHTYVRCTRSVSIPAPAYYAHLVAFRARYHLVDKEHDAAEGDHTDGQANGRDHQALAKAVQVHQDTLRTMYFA

1. ATGTCCTA (ssRNA, constant regions annealed to DNA blockers; guide miR-122 5' phosphate) RNA 1: GAGUUCUACAGUCCGACGAUCCCAACAUGUCCUACACCUGGAAUUCUCGGGUGCCAA RNA 2: UGGAGUGUGACAAUGGUGUUUG DNA 1: GATCGTCGGACTGTAGAACTC DNA 2: TTGGCACCCGAGAATTCCA	0.592 fold enrichment over input

Entry GTGTCTCA (ssRNA, constant regions annealed to DNA blockers; guide miR-122 5' phosphate) RNA 1: GAGUUCUACAGUCCGACGAUCCCAACGUGUCUCACACCUGGAAUUCUCGGGUGCCAA RNA 2: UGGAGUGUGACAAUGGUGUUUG DNA 1: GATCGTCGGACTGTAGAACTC DNA 2: TTGGCACCCGAGAATTCCA ; binding signal = 0.585 fold enrichment over input

Entry ACGCCTTG (ssRNA, constant regions annealed to DNA blockers; guide miR-122 5' phosphate) RNA 1: GAGUUCUACAGUCCGACGAUCCCAACACGCCUUGCACCUGGAAUUCUCGGGUGCCAA RNA 2: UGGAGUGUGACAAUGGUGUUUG DNA 1: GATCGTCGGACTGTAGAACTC DNA 2: TTGGCACCCGAGAATTCCA ; binding signal = 0.54 fold enrichment over input

Entry ATGCTTCG (ssRNA, constant regions annealed to DNA blockers; guide miR-122 5' phosphate) RNA 1: GAGUUCUACAGUCCGACGAUCCCAACAUGCUUCGCACCUGGAAUUCUCGGGUGCCAA RNA 2: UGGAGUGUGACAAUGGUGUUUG DNA 1: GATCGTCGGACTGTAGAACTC DNA 2: TTGGCACCCGAGAATTCCA ; binding signal = 0.474 fold enrichment over input
